Tested on: LS411N cells
Experiment: DHX9 cellular proliferation assay (CellTiter-Glo), LS411N (CRC-MSI)
Type: cell-based
Details: Homo sapiens, LS-411N, LS411N, CRC-MSI-H; performed at Pharmaron; read-out: LS411N (CRC-MSI-H) Antiproliferative IC50
Measured endpoint: IC50

1. COc1cnc(-c2cc(C(=O)Nc3cc(Cl)cc(NS(C)(=O)=O)c3)sc2C)c(F)c1	129 nM
2. COc1ccc(-c2cc(C(=O)Nc3cc(Cl)cc(NS(C)(=O)=O)c3)sc2C)nc1	50 nM
3. CCOc1cnc(-c2cc(C(=O)Nc3cc(Cl)cc(NS(=O)(=O)CC)c3)sc2C)nc1	116 nM
4. Cc1sc(C(=O)Nc2cc(Cl)cc(NS(C)(=O)=O)c2)cc1-c1ccc(OC(C)(C)C)cn1	54.1 nM
5. Cc1sc(C(=O)Nc2cc(Cl)cc(NS(C)(=O)=O)c2)cc1-c1ncc(OC(C)(C)C)cc1F	347 nM
6. CCS(=O)(=O)Nc1cc(Cl)cc(NC(=O)c2cc(-c3ncc(OC)cn3)c(C)s2)c1	111 nM

* * *

Recorded pEC50 for the following compounds
Tested on: circBRIP1 in HCT116 cells
Test: DHX9 circBRIP1 cellular target engagement SYBR Green assay (qPCR)
Type: cell-based
Settings: Homo sapiens, HCT-116, circBRIP1, HCT116 cells; SyBr assay (marked ^+); read-out: DHX9 Cellular Target Engagement EC50
pEC50: −log10 of the molar value.
Measured endpoint: pEC50

1) CS(=O)(=O)Nc1cc(Cl)cc(NC(=O)c2cc(N3CCOCC3)cs2)c1 [Example 245]	5.37
2) CS(=O)(=O)Nc1cc(Cl)cc(NC(=O)c2cnn(-c3ncccc3OCc3cncnc3)c2)c1 [Example 188]	5.84
3) Cc1cccn2cc(C(=O)Nc3cc(Cl)cc(NS(C)(=O)=O)c3)cc12 [Example 329]	5.30
4) CS(=O)(=O)Nc1cc(Cl)cc(NC(=O)c2cnn(-c3ccccc3-c3cncc(F)c3)c2)c1 [Example 257]	5.58
5) Cc1sc(C(=O)Nc2cc(Cl)cc(NS(C)(=O)=O)c2)cc1-c1ncccc1CC(=O)N(C)C [Example 385]	5.88
6) CS(=O)(=O)Nc1cc(Cl)cc(NC(=O)c2cnn(-c3ncccc3OCc3cn[nH]c3)c2)c1 [Example 206]	5.97
7) Cc1cccc2cc(C(=O)Nc3cc(Cl)cc(NS(C)(=O)=O)c3)cn12 [Example 304]	5.22
8) Cc1cc(C(=O)Nc2cc(Cl)cc(NS(C)(=O)=O)c2)cn1-c1ccc(N(C)C2CCOC2)cn1 (centres unmarked) [Example 269]	7.43
9) CS(=O)(=O)Nc1cc(Cl)cc(NC(=O)c2cc(-c3ccc(N4CCOCC4)cn3)n(CC(F)(F)F)c2)c1 [Example 275]	6.72
10) CS(=O)(=O)Nc1cc(Cl)cc(NC(=O)c2cnn(-c3ncccc3OCc3nccs3)c2)c1 [Example 205]	6.08
11) CS(=O)(=O)Nc1cc(Cl)cc(NC(=O)c2cnn(-c3ccc(C4CCOCC4)cn3)c2)c1 [Example 190]	6.43
12) CS(=O)(=O)Nc1cc(Cl)cc(NC(=O)c2cc(-c3ncccc3CC(=O)N3CCC3)cs2)c1 [Example 382]	6.19
13) CS(=O)(=O)Nc1cc(Cl)cc(NC(=O)c2cc3c(Cl)cccc3s2)c1 [Example 332]	5.48
14) CN(C)C(=O)c1cccnc1-c1csc(C(=O)Nc2cc(Cl)cc(NS(C)(=O)=O)c2)c1 [Example 222]	6.70
15) CS(=O)(=O)Nc1cc(Cl)cc(NC(=O)c2cc(-c3ncc(F)cn3)cs2)c1 [Example 338]	6.90
16) Cc1ccc2cc(C(=O)Nc3cc(Cl)cc(NS(C)(=O)=O)c3)cn2c1 [Example 300]	5.40
17) CS(=O)(=O)Nc1cc(Cl)cc(NC(=O)c2cc(C(F)(F)F)n(-c3ccc(F)cn3)c2)c1 [Example 267]	5.65
18) CSc1cccnc1-n1cc(C(=O)Nc2cc(Cl)cc(NS(C)(=O)=O)c2)cn1 [Example 219]	6.58
19) COc1ccc2cc(C(=O)Nc3cc(Cl)cc(NS(C)(=O)=O)c3)sc2c1 [Example 327]	5.45
20) CS(=O)(=O)Nc1cc(Cl)cc(NC(=O)c2cc(N3CCN(CC(F)(F)F)CC3)cs2)c1 [Example 246]	5.41
21) Cc1cc(C(=O)Nc2cc(Cl)cc(NS(C)(=O)=O)c2)cn1C1CCCC1 [Example 282]	5.73
22) CS(=O)(=O)Nc1cc(Cl)cc(NC(=O)c2cnn(-c3ccccc3Oc3cccc(F)c3)c2)c1 [Example 265]	5.33
23) Cc1cc(C(=O)Nc2cc(Cl)cc(NS(=O)(=O)C3CC3)c2)cn1-c1ccc(N2CCOCC2)cn1 [Example 247]	5.65
24) CS(=O)(=O)Nc1cc(Cl)cc(NC(=O)c2cnn(-c3ncccc3OCc3ccccc3F)c2)c1 [Example 189]	6.51
25) CS(=O)(=O)Nc1cc(Cl)cc(NC(=O)c2cnn(-c3ncc(N4CC5(COC5)C4)cc3OCc3cc(F)cc(F)c3)c2)c1 [Example 258]	6.54
26) CS(=O)(=O)Nc1cc(Cl)cc(NC(=O)c2cnn(-c3ncccc3OCc3ccn[nH]3)c2)c1 [Example 253]	5.03
27) CCS(=O)(=O)Nc1cc(Cl)cc(NC(=O)c2cc(-c3ncc(F)cc3C)cs2)c1 [Example 226]	6.41

* * *

System: LS411N cells
Test: DHX9 cellular proliferation assay (CellTiter-Glo), LS411N (CRC-MSI)
Type: cell-based
Details: Homo sapiens, LS-411N, LS411N, CRC-MSI-H; performed at Pharmaron; read-out: LS411N (CRC-MSI-H) Antiproliferative IC50
pIC50: −log10 of the molar value.
# pIC50 values compiled below
Measured endpoint: pIC50

1. COc1cnc(-c2cc(C(=O)Nc3cc(Cl)cc(NS(C)(=O)=O)c3)sc2C)c(C)c1	6.44
2. CS(=O)(=O)Nc1cc(Cl)cc(NC(=O)c2cc(-c3ncc(C(F)(F)F)cn3)cs2)c1	6.64
3. CCS(=O)(=O)Nc1cc(Cl)cc(NC(=O)c2cc(-c3ncc(F)cc3F)c(C)s2)c1	6.80
4. COc1ccc(-n2cc(C(=O)Nc3cc(Cl)cc(NS(C)(=O)=O)c3)cc2C)nc1	6.77

* * *

System: circBRIP1 in HCT116 cells
Test: DHX9 circBRIP1 cellular target engagement SYBR Green assay (qPCR)
Type: cell-based
Conditions: Homo sapiens, HCT-116, circBRIP1, HCT116 cells; SyBr assay (marked ^+); read-out: DHX9 Cellular Target Engagement EC50
Collected EC50 values appear next to each entry.
Measured endpoint: EC50

1. CN1CCC(n2cc(C(=O)Nc3cc(Cl)cc(NS(C)(=O)=O)c3)cn2)CC1=O (stereo not drawn)	> 10 µM
2. CN1CCN(c2cnc(-n3cc(C(=O)Nc4cc(Cl)cc(NS(C)(=O)=O)c4)cn3)nc2)CC1=O	> 10 µM
3. Cc1cncc2cc(C(=O)Nc3cc(Cl)cc(NS(C)(=O)=O)c3)sc12	> 10 µM

Taken from patent US12162867B2.
